These measurements were taken from the supplement of paper PMC10338343.

- Tested on: MILI (PIWIL2) piRISC loaded with L1MC piRNA (26 nt);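 note: 1 nM active piRISC with 0.1 nM target library at 33 °C single turnover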
- Procedure Text: pre-steady-state target cleavage rate (min^-1); guide: L1MC piRNA 5'p-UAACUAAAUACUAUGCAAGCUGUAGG; MIWI and MILI are mouse PIWI proteins and EfPiwi is from a freshwater sponge; tags in brackets are library labels; higher = faster piRNA-guided slicing of the target
- Conditions Used: auxiliary factor: 500 nM mouse GTSF1
Readout Name: pre-steady-state target cleavage rate
Reply with the value as a number alone.

Reported pre-steady-state target cleavage rate of UCCUCCUACAGCUUGCAAAGUAUUUAGUAA : 0.142

Form field pre-steady-state target cleavage rate, entry UCCUGGAUGAGCUUGCAGAGUAUUUAGUUA : 0.0869

Lab note: UCCUGGAUGUGCUCUGCAUAGUAUUUAGUUA gave pre-steady-state target cleavage rate of 0.137

The measured pre-steady-state target cleavage rate associated with UCCUGGAUCAGCUUGUAUAGUAUUUAGUUA reads 0.301

get_value(item= UCCUGGAAGAGCUUGGAUAGUAUUUAGUUA , readout=pre-steady-state target cleavage rate) returns 0.178

UCCUGGUACAGCAACCAUAGUAUUUAGUUA yielded pre-steady-state target cleavage rate of 0.286

Field pre-steady-state target cleavage rate (entry UCCUGGAUCAGCUUGCAUUGUAUUUAGAAA ) reads 0.0362

Sample UCCUGGUACUCCUUGCAUAGUAUUUACAAA ; pre-steady-state target cleavage rate observed: 0.0123

// UCCUGGAACAGCAUGCAUUGUAUUUAGUUA : pre-steady-state target cleavage rate value = 0.204

Entry UCCUGGUACAGCUUGCAUAGUAAUUACAAA — recorded pre-steady-state target cleavage rate = 0.021

pre-steady-state target cleavage rate recorded for this sequence, UCCUGGAUCAGCUUGCAUAGUAUUUAAGUUA , is 0.251

Lab note: UCCUGGAUGAGCUUGCUUUGUAUUUAGUUA gave pre-steady-state target cleavage rate of 0.0408

# sequence UCCUGGUACACCUUGCAUAGUAUUUAGUUA ; its pre-steady-state target cleavage rate = 0.147

According to the records, this sequence UCCUGGAUGUGCUUGCAUAGUAUUUCAGUUA displays pre-steady-state target cleavage rate of 0.0278

For UCCUGGUACAGCUUGCAUACUAUUUUGUUA the sequence record lists pre-steady-state target cleavage rate as 0.0288

According to the records, this sequence UCCUGGAUGAGCUAGCAUAGUAUAUAGUUA displays pre-steady-state target cleavage rate of 0.242

Query UCCUGGUACUGCUUGGAUAGUAUUUAGUUA yields pre-steady-state target cleavage rate of 0.179

Record UCCUGCUACAGCUUGCUAUGUAUUUAGAAA . Reported pre-steady-state target cleavage rate: 0.0133

// pre-steady-state target cleavage rate lookup, sequence = UCCUGGAACAGCGUGCAUAGUAUUUAGUUA , result: 0.282

Query UCCUGGUACACGUUGCAUAGUAUUUAGAAA yields pre-steady-state target cleavage rate of 0.0229

The reported pre-steady-state target cleavage rate of the sequence UCCUGGAUCAGCAUGCAUAGUAUUUAGAAA was 0.126

The sequence identified as UCCUGGAACAGCAUGCAUAGUAAUUAGUUA registered its pre-steady-state target cleavage rate at 0.225

Record UCCUGGAACAGCUUGCAUUGUAUUUUGUUA , field pre-steady-state target cleavage rate: 0.102

Noted for UCCUGGAUGUCGAUGCAUAGUUAUUAGUUA : its pre-steady-state target cleavage rate reads 0.00565

pre-steady-state target cleavage rate in this record for UCCUGGAACAGCUUGCAAAGUAUUUUCAAA : 0.0111

Lookup result for UCCUGGAUGAGCUUGCAUAGUAUAAAGUAA ; measured pre-steady-state target cleavage rate: 0.0682

pre-steady-state target cleavage rate for UCCUGGAUGUCGUUGCAUAGUAAAUAGUUA is 0.0599

pre-steady-state target cleavage rate recorded for this sequence, UCCUCCGACAGCUUGCAUAGUAUUUAGUUA , is 0.25

Lab book: pre-steady-state target cleavage rate of UCCUGGAACAGCUAGCAUAGUAUUUAGAUA noted as 0.118

pre-steady-state target cleavage rate measured on UCCUGCUACAGCUUGCAUAGUAUUUUGUUA = 0.168

Quick note, pre-steady-state target cleavage rate for UCCUGGAUGAGCUUGCAUUGUAUUAAGUUA landed at 0.0879

Recorded pre-steady-state target cleavage rate (sequence UCCUGGUACAGGAAGCAUAGUAUUUAGUAA ): 0.167
